B1: P2RY14 (parent)
chain: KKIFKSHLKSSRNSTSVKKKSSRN

variants of: B1; assay: protein stability index of a GFP-peptide fusion (GPS, HEK-293T) (PSI 1-6); higher = more stable; conditions: c terminus: a fixed tail appended;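 note: lentivirally expressed fusions sorted by FACS into six bins by GFP to DsRed ratio, PSI derived from sequencing read proportions per bin multiplied by bin number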

- Variant Name: "V17P"
  protein stability index: 4.09
- Variant Name: "S10E"
  protein stability index: 4
- Variant Name: "R12H"
  protein stability index: 3.93
- Variant Name: "S11T"
  protein stability index: 4.22
- Variant Name: "K1T"
  protein stability index: 4
- Variant Name: "S22L"
  protein stability index: 3.48
- Variant Name: "N13K"
  protein stability index: 3.95
- Variant Name: "K19L"
  protein stability index: 3.5
- Variant Name: "H7D"
  protein stability index: 4.36
- Variant Name: "H7S"
  protein stability index: 4.15
- Variant Name: "S11V"
  protein stability index: 4.31
- Variant Name: "K18V"
  protein stability index: 3.74
- Variant Name: "S6I"
  protein stability index: 3.5
- Variant Name: "S11L"
  protein stability index: 4.12
- Variant Name: "S10Q"
  protein stability index: 3.83
- Variant Name: "K20A"
  protein stability index: 3.64
- Variant Name: "K19A"
  protein stability index: 3.98
- Variant Name: "N13M"
  protein stability index: 3.64
- Variant Name: "F4L"
  protein stability index: 4
- Variant Name: "S16R"
  protein stability index: 4.22
- Variant Name: "F4N"
  protein stability index: 4.49
- Variant Name: "S14T"
  protein stability index: 4.33
- Variant Name: "I3H"
  protein stability index: 4.34
- Variant Name: "K1S"
  protein stability index: 4.26
- Variant Name: "K20E"
  protein stability index: 3.75
- Variant Name: "S21V"
  protein stability index: 4.14
- Variant Name: "T15K"
  protein stability index: 3.84
- Variant Name: "S6E"
  protein stability index: 4.36
- Variant Name: "F4K"
  protein stability index: 4.47
- Variant Name: "K19M"
  protein stability index: 3.92
- Variant Name: "K2D"
  protein stability index: 4.66
- Variant Name: "F4D"
  protein stability index: 4.6
- Variant Name: "K20N"
  protein stability index: 3.86
- Variant Name: "K18R"
  protein stability index: 3.88
- Variant Name: "S21M"
  protein stability index: 3.92
- Variant Name: "S21T"
  protein stability index: 3.8
- Variant Name: "K5A"
  protein stability index: 4.33
- Variant Name: "T15P"
  protein stability index: 4.28
- Variant Name: "K20R"
  protein stability index: 4.39
- Variant Name: "V17W"
  protein stability index: 3.6
- Variant Name: "K19T"
  protein stability index: 3.62
- Variant Name: "R23G"
  protein stability index: 3.94
- Variant Name: "S22Q"
  protein stability index: 4.49
- Variant Name: "S16L"
  protein stability index: 4.14
- Variant Name: "K19E"
  protein stability index: 3.98
- Variant Name: "K2F"
  protein stability index: 3.63
- Variant Name: "S10G"
  protein stability index: 3.81
- Variant Name: "S22M"
  protein stability index: 4.19
- Variant Name: "H7M"
  protein stability index: 3.79
- Variant Name: "K5N"
  protein stability index: 4.33
- Variant Name: "L8K"
  protein stability index: 4.29
- Variant Name: "S10N"
  protein stability index: 4.33
- Variant Name: "F4W"
  protein stability index: 3.96
- Variant Name: "K2I"
  protein stability index: 3.35
- Variant Name: "N13W"
  protein stability index: 3.41
- Variant Name: "V17M"
  protein stability index: 4.12
- Variant Name: "K5D"
  protein stability index: 4.16
- Variant Name: "S14E"
  protein stability index: 4.35
- Variant Name: "F4A"
  protein stability index: 4.49
- Variant Name: "L8R"
  protein stability index: 4.14
- Variant Name: "K2C"
  protein stability index: 3.88
- Variant Name: "R12N"
  protein stability index: 4.17
- Variant Name: "N24A"
  protein stability index: 4.14
- Variant Name: "N13C"
  protein stability index: 3.74
- Variant Name: "F4H"
  protein stability index: 4.07
- Variant Name: "K20P"
  protein stability index: 3.83
- Variant Name: "S11I"
  protein stability index: 3.98
- Variant Name: "S21N"
  protein stability index: 4.17
- Variant Name: "K19D"
  protein stability index: 3.6
- Variant Name: "K5R"
  protein stability index: 3.67
- Variant Name: "K18N"
  protein stability index: 4.27
- Variant Name: "H7E"
  protein stability index: 4.41
- Variant Name: "K18M"
  protein stability index: 4.1
- Variant Name: "K19I"
  protein stability index: 3.59
- Variant Name: "S21Q"
  protein stability index: 3.88
- Variant Name: "I3P"
  protein stability index: 4.38
- Variant Name: "N13F"
  protein stability index: 3.77
